Attribute: EC50
Biological target: human CB2 receptors (Homo sapiens, UniProt P34972)
Construct: (cDNA clone) CNR0200000
Sequence (P34972 whole entry): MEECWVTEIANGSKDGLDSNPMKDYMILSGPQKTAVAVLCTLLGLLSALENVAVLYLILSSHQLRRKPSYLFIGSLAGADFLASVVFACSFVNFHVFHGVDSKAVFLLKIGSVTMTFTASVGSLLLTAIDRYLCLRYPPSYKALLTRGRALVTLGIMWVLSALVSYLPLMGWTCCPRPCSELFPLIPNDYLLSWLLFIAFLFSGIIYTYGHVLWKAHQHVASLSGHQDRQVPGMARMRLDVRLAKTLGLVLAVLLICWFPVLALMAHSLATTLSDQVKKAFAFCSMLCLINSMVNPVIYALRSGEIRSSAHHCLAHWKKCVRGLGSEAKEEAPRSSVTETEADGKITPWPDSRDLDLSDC
Assay: cAMP assay in HEK-293 cells, hCB2 agonist
Type: cell-based

Cc1cc2cc(C(=O)c3ccc(OC(F)(F)F)cc3)sc2n1CCN1CCOCC1 ... 100 to 1000 nM
COCCn1c(C)cc2cc(C(=O)c3cccc(Cl)c3Cl)sc21 ... < 100 nM
Cc1cc2cc(C(=O)c3cccc(Cl)c3Cl)sc2n1CC(=O)N1CCOCC1 ... 100 to 1000 nM
Cc1cc2cc(C(=O)c3ccncc3)sc2n1CCN1CCOCC1 ... 100 to 1000 nM
COc1ccc(C(=O)c2cc3cc(C)n(CC4CCOCC4)c3s2)cn1 ... < 100 nM

Turning now to a further compound:
[ask] What value of measured EC50 is listed for `Cc1cc2cc(C(=O)c3cccc(F)c3F)sc2n1CCN1CCOCC1` ?
[reply] < 100 nM

* * *

Biological target: human CB2 receptors (Homo sapiens)
Construct: (cDNA clone) CNR0200000
Assay: cAMP assay in HEK-293 cells, hCB2 agonist
Type: cell-based
Details: inhibition of forskolin-stimulated cAMP, HEK-293 cells; read-out: hCB2 EC50 (cAMP ag)
pEC50: −log10 of the molar value.
Attribute: pEC50

COc1ccc(C(=O)c2cc3cc(C)n(CCCNS(C)(=O)=O)c3s2)cc1 ... > 7.00

[ask] What value of measured pEC50 is listed for `Cc1cc2cc(C(=O)c3ccc(F)cc3)sc2n1CCN1CCOCC1` ?
[reply] > 7.00

[ask] What value of measured pEC50 is listed for `Cc1cc2cc(Cc3cccc(Cl)c3Cl)sc2n1CCN1CCOCC1` ?
[reply] > 7.00

[ask] What value of measured pEC50 is listed for `COc1ncccc1C(=O)c1cc2cc(C)n(CCN3CCOCC3)c2s1` ?
[reply] > 7.00

[ask] What value of measured pEC50 is listed for `COc1ccc(C(=O)c2cc3cc(C)n(CCN4CCOC(C)(C)C4)c3s2)cn1` ?
[reply] 6.00 to 7.00

[ask] What value of measured pEC50 is listed for `CCS(=O)(=O)n1c(C)cc2cc(C(=O)c3cccc(Cl)c3Cl)sc21` ?
[reply] > 7.00

[ask] What value of measured pEC50 is listed for COc1ccc(C(O)c2cc3cc(C)n(CCN4CCOCC4)c3s2)cc1 (stereo not drawn) ?
[reply] > 7.00

[ask] What value of measured pEC50 is listed for `COc1ccc(C(=O)c2cc3cc(C)n(CCN4CCOCC4)c3s2)cn1` ?
[reply] > 7.00

[ask] What value of measured pEC50 is listed for COc1ccc(C(=O)c2cc3cc(C)n(CCN4CCC(OC)C4)c3s2)cn1 (stereo not drawn) ?
[reply] 6.00 to 7.00

* * *

Target: human CB1 (hCB1) (Homo sapiens)
Construct: (cDNA clone) CNR01L000
Sequence (P21554 whole entry): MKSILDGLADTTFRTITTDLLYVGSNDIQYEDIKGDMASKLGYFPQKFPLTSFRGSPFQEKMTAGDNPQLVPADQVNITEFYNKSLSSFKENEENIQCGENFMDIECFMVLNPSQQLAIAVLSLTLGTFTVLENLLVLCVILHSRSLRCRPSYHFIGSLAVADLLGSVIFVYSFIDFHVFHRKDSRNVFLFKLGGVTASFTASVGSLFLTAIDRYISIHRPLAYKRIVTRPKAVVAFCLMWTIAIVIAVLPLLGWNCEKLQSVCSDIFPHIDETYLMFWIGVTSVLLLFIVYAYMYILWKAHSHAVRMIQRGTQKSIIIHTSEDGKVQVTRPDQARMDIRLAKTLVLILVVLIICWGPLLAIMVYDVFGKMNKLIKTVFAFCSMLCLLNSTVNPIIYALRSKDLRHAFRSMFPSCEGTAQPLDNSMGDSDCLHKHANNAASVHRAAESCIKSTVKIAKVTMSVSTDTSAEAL
Test: 35S GTPγS binding assay, hCB1 agonist
Type: biochemical
pEC50: −log10 of the molar value.
Assay metric: pEC50

[ask] What value of measured pEC50 is listed for `Cc1c(Cl)c2cc(C(=O)c3cccc(Cl)c3Cl)sc2n1CCN1CCOCC1` ?
[reply] 6.00 to 7.00

Taken from patent US20130029970A1.
